These data points were gathered from PubChem BioAssay (NCI).

assay: NCI Yeast Anticancer Drug Screen. Data for the sgs1 mgt1 strain (AID 161);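 note: 0% = growth of cultures given vehicle only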; conditions: S. cerevisiae sgs1 mgt1 strain, at 50.0 µM
This is part of a sample that, as a whole, favours compounds with a hit. Of some 79,000 tested, about 15% had one in any assay. The source made the active and inactive calls. Cut-off read from the data, not from the text of the source: active = growth inhibition above about 70%; inactive = the rest.
Hi there, use one of these labels in your reply, thanks! Yes for active, No for inactive

Reference set (8 entries):
In this assay, the call recorded for CCOC(=O)C1([Se]c2ccccc2)CCCC1=O (stereo not given) was what?
Yes

Hi, sorry to bother you, what did the test record for "BrCc1ccc2ncccc2c1" ?
Yes

For CC(=O)OC1C2(CC3N4C(=O)C5(CO)SSC4(CC31O)C(=O)N5C)OC(C)C(C)(C)C2=O (stereo not given) , which call appears in the assay record?
Yes

Which outcome did this test record for the compound CC1CCC2(NC1)OC1CC3C4CCC5CC(OC6OC(CO)C(OC7OC(CO)C(O)C(OC8OCC(O)C(O)C8O)C7OC7OC(CO)C(O)C(O)C7O)C(O)C6O)CCC5(C)C4CCC3(C)C1C2C (stereo not given) ?
No

State the result this test recorded for "O=c1c2ccccc2[se]n1-c1cccnc1" .
No

Give the logged outcome of this assay for the following compound: "CC[C@H](C)c1occ2c(O)c(C(=O)O)c(=O)cc-2c1C"
No

Hi, sorry to bother you, what did the test record for CCOC(=O)C1=C(C)NC(=O)NC1c1ccc(N(CCCl)CCCl)cc1Cl (stereo not given) ?
No

Lab log entry: "N#CC(=C=N)N=C(F)C(C#N)=C(C#N)C#N" — outcome as called in the assay?
Yes

Next:
Lab log entry: "C/C(=N\N=C(\[Se])N1CCN(c2ccccn2)CC1)c1ccccn1" — outcome as called in the assay?
Yes

Returns: the outcome recorded for "O=c1oc2ccccc2c(O)c1C(c1ccc(/C=C/c2ccccc2)cc1)c1c(O)c2ccccc2oc1=O" in this assay.
Yes

----------
Assay: NCI Yeast Anticancer Drug Screen. Data for the bub3 strain (AID 167)
Conditions: S. cerevisiae bub3 mutant strain, at 5.0 µM (retest, dose inferred, filed as 0.5)
Method: Growth inhibition of yeast strains with defined genetic alterations is measured as a screen for potential anti-cancer activity. Selected strains with alterations in DNA damage repair or cell cycle control were exposed to compounds and growth inhibition was measured relative to vehicle treated controls. The strain used in this assay is bub3
The panel holds about 79,000 compounds, 15% with a hit somewhere; the sample as a whole holds those more often. Activity calls are given as the source filed them. No stated cut-off is given here; in the data, active means growth inhibition above about 70%; inactive means the rest.
In this exercise, the only acceptable responses are Y for active, N for inactive

Hi team, can someone confirm the assay call for O=C1C2CC(Cl)C(SSC3CC4C(=O)N(SC(Cl)(Cl)C(Cl)Cl)C(=O)C4CC3Cl)CC2C(=O)N1SC(Cl)(Cl)C(Cl)Cl (configuration not stated) ?
N

New cases:
In this assay, the call recorded for "COC(=O)CCCCCCCCC[CH2][Hg][Cl]" was what?
Y

Outcome? "O=[N+]([O-])c1ccc2c[n+]3ccccc3cc2c1"
N

Check the results log: what was the call for "N.N.N.N.N.N#N.[Cl-].[Os+7]" ?
N

Each compound tested received a call. Report the one for C=Cc1ccccc1 (tested in a mixture with another compound) .
N

Short answer needed: outcome of this test for CC(Cl)CN(C)C (configuration not stated) ?
N

Would you mind telling me which call this test gave "Clc1ccc(CCN2CCOCC2)c(Cl)c1" ?
N

----------
test: NCI Yeast Anticancer Drug Screen. Data for the wt2 strain (AID 169);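 note: 0% = growth of vehicle-treated yeast cultures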; conditions: S. cerevisiae wt2 strain growth inhibition; at 100.0 µM
This is part of a sample that, as a whole, favours compounds with a hit. Of some 79,000 tested, about 15% had one in any assay. The source made the active and inactive calls. Rule as the data show it: active = growth inhibition above about 70%; inactive = the rest.
Write down one outcome, taken from label 1 for active, label 0 for inactive

Some entries whose results are on file:
Field: outcome | Entry: "Oc1cccc2cccnc12"
label 1

Recorded call for "O=C(Nc1cc(Cl)ccc1Cl)C(Cl)(Cl)Cl" ?
label 0

In this assay, the call recorded for "CN(C)CCC(C(=O)C(Br)Br)(c1ccccc1)c1ccccc1" was what?
label 1

In this assay, the call recorded for "CS(=O)(=O)OCCN(CCOS(C)(=O)=O)c1ccc(C=O)cc1" was what?
label 1

Test call, this compound: "COc1cc(O)c2c(O)c3c(c4c2c1[C@]1(C4)C(C)=CCCC1(C)C)[C@H](O)[C@@]1(O)CC(=O)C(C(N)=O)=C(O)[C@@]1(O)C3=O"
label 1

Name the outcome recorded for CCOP(=O)(CC(C)P(=O)(OCC)OCC)OCC.C[CH2][Sn]([Cl])([Cl])[CH2]C (stereo not given) in the assay.
label 1

Which outcome was entered for the compound OC(c1ccc(Br)cc1)C(Cl)(Cl)Cl (stereo not given) in this test?
label 1

Recorded call for CC(Cc1ccccc1)N(C)Cc1nc(C2CCC([N+](=O)[O-])O2)no1 (stereo not given) ?
label 0

For "NNc1ccccc1Cl" , which call appears in the assay record?
label 1

Please examine the following record next.
I would be grateful if you could indicate the recorded call for "CCN(CCCl)c1cc(CN(C)C)cc(NC(=O)c2ccc(C(=O)Nc3cc(CN(C)C)cc(N(CC)CCCl)c3)cc2)c1" .
label 1

----------
assay: NCI Yeast Anticancer Drug Screen. Data for the mec2-1 strain (AID 157); details: S. cerevisiae mec2-1 strain, at 33.0 µM, hits give high values
This is part of a sample that, as a whole, favours compounds with a hit. Of some 79,000 tested, about 15% had one in any assay.
propertyName: growth inhibition (%)
All answers are understood in %, so give the number only.

Completed entries (count: 4):
Please report the recorded growth inhibition for C[C@]12CCc3nonc3C1CC[C@@H]1C2CC[C@]2(C)C(=O)CCC12 (stereo not given in full) .
15

Quick check: growth inhibition of "CC1=C2C(=C[C@@](C)(CO)[C@@H]2O)C(=O)[C@](C)(O)C12CC2" ?
13

Quick check: growth inhibition of "Nc1ccccc1C(=O)OCCc1ccccc1" ?
13

Consider the molecule shown here: O=[N+]([O-])O.[NH-]C1CCCCC1[NH-].[NH-]C1CCCCC1[NH-].[NH-]C1CCCCC1[NH-].[OH-].[OH-].[OH-].[Pt+4].[Pt+4].[Pt+4] (stereo not given) What is its recorded growth inhibition?
4

Next molecule, growth inhibition to be filled in.
Param item = "O=P(CCCCP(=O)(c1ccccc1)c1ccccc1)(c1ccccc1)c1ccccc1.[Cl][Sn]([Cl])([c]1ccccc1)[c]1ccccc1" ; retrieve measured growth inhibition.
95

----------
Entries and their growth inhibition values follow.
assay: NCI Yeast Anticancer Drug Screen. Data for the mec2-1 strain (AID 157); conditions: S. cerevisiae mec2-1 strain, at 50.0 µM, hits give high values
Compounds without any hit were thinned out: in the full panel of roughly 79,000, 15% have a hit.
I only need the number, in %, no unit after it.

In the examples that follow, each entry is paired with its recorded growth inhibition.
What value of growth inhibition has been recorded for this entry: "O=C(N/N=C/c1cc(Cl)cc(Cl)c1[O-])c1ccccc1O.O=C(N/N=C/c1cc(Cl)cc(Cl)c1[O-])c1ccccc1O.[Mn+2]"
91.3

Quick one: growth inhibition for N=P(c1ccccc1)(c1ccccc1)c1ccccc1 (tested in a mixture with another compound) ?
17.3

Consider the molecule shown here: CC(=O)OC1C(=O)OCC23CCC4(C)OC4C2OC2CC(OC(=O)/C=C/C=C/C(=O)OCCC1C)C3(C)C21CO1 (stereo not drawn) What is its recorded growth inhibition?
93.8

I'd like to know its growth inhibition. The molecule in question is "CC(C)=[CH][Sb]([Br])([CH]=C(C)C)([CH]=C(C)C)[c]1ccccc1"
45.8

Query: growth inhibition; subject: "C[N+](CCCl)(CCCl)Cc1cccc2cccc([N+](=O)[O-])c12"
47

New cases:
Would you mind telling me what growth inhibition value was observed for COC1=[C]([Hg][Br])C(OC)OC1OC (stereo not drawn) ?
99.5

Record request: growth inhibition value, item CNC(=O)OCC1C2=C(C(=O)C(C)=C(N)C2=O)N2CC3C(N3C)C12OC (stereo not drawn)
55

Value lookup for growth inhibition; key = "CC[C@](O)(C(=O)O)c1cc2n(c(=O)c1CO)Cc1cc3ccccc3nc1-2"
97

May I ask what growth inhibition has been recorded for "O=[N+]([O-])c1ccc2c[n+]3ccccc3cc2c1" ?
5.3

Fill in: growth inhibition of O=P1(Oc2ccccc2)C(c2ccccc2)C(c2ccccc2)=NN1c1ccccc1 (stereo not drawn) is ___
91

Could you tell me which growth inhibition is on file for "C[CH2][Sn]([Cl])([CH2]C)[O][Sn]([CH2]C)([CH2]C)[O][Sn]([Cl])([CH2]C)[CH2]C" ?
81

----------
Assay: NCI Yeast Anticancer Drug Screen. Data for the cln2 rad14 strain (AID 165);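 note: 0% = growth equal to vehicle treated cultures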
Details: S. cerevisiae cln2 rad14 strain, at 5.0 µM (retest, dose inferred, filed as 0.5), hits give high values
Description: Growth inhibition of yeast strains with defined genetic alterations is measured as a screen for potential anti-cancer activity. Selected strains with alterations in DNA damage repair or cell cycle control were exposed to compounds and growth inhibition was measured relative to vehicle treated controls. The strain used in this assay is cln2 rad14
About 79,000 compounds went through this panel and 15% of them were active in at least one assay; those are over-represented in the sample as a whole. Calls of active or inactive are those of the source. No stated cut-off is given here; in the data, active means growth inhibition above about 70%; inactive means the rest.
propertyName: growth inhibition

Use the examples below as a reference point.
Quick one: growth inhibition of "COc1ccc(/C=C(/C)[N+](=O)[O-])cc1" ?
37% (inactive)

Given "Cc1cc[n+](C2=C(Nc3ccc(Cl)cc3Cl)C(=O)c3ccccc3C2=O)cc1" , state its recorded growth inhibition.
4% (inactive)

Continuing:
Report growth inhibition for "COc1cc[c]([Sb]([Br])([CH]=C(C)C)([CH]=C(C)C)[CH]=C(C)C)cc1" please.
-12% (inactive)
